- assay: Clinical bioequivalence study: plasma concentrations (LC-MS-MS) and noncompartmental PK after oral tablet
- Assay type: in vivo, human
- recorded-conditions: human, plasma, po, 2 mg, clonazepam 2 mg oral, plasma, 4 h, one value per subject (A1-A6, A8, B1-B8; B5 consumed alcohol); read-out: Concentration, individual subjects
observation-type: concentration at 4 h (µg/mL)

O=C1CN=C(c2ccccc2Cl)c2cc([N+](=O)[O-])ccc2N1 [Clonazepam, clonazepam] = 0.0127

----------
- assay: Clinical bioequivalence study: plasma concentrations (LC-MS-MS) and noncompartmental PK after oral tablet
- Type: in vivo, human
- recorded-conditions: human, plasma, po, 2 mg, clonazepam 2 mg oral, plasma, 1.5 h, MEAN column of the sheet with 15 subject columns; read-out: Concentration, MEAN of raw data sheet
observation-type: concentration at 1.5 h (ng/mL)

O=C1CN=C(c2ccccc2Cl)c2cc([N+](=O)[O-])ccc2N1 [Clonazepam, clonazepam] = 13.5

----------
- assay: Clinical bioequivalence study: plasma concentrations (LC-MS-MS) and noncompartmental PK after oral tablet
- Assay type: in vivo, human
- recorded-conditions: human, plasma, po, 15 mg, midazolam 15 mg oral, plasma, 1 h, mean (±1 SD) N=15; read-out: Concentration, Referent
observation-type: concentration at 1 h (ng/mL)

Cc1ncc2n1-c1ccc(Cl)cc1C(c1ccccc1F)=NC2 = 56.6

----------
- assay: Clinical bioequivalence study: plasma concentrations (LC-MS-MS) and noncompartmental PK after oral tablet
- Assay type: in vivo, human
- recorded-conditions: human, plasma, po, 2 mg, clonazepam 2 mg oral, plasma, 0.5 h, mean ±1 SD N=14; read-out: Concentration, Referent
observation-type: concentration at 0.5 h (ng/mL)

O=C1CN=C(c2ccccc2Cl)c2cc([N+](=O)[O-])ccc2N1 = 7.13

----------
- assay: Clinical bioequivalence study: plasma concentrations (LC-MS-MS) and noncompartmental PK after oral tablet
- Format: in vivo, human
- recorded-conditions: human, plasma, po, 15 mg, midazolam 15 mg oral, plasma, 12 h, mean (±1 SD) N=15; read-out: Concentration, Referent
observation-type: concentration at 12 h (ng/mL)

Cc1ncc2n1-c1ccc(Cl)cc1C(c1ccccc1F)=NC2 = 3.48

----------
- assay: Clinical bioequivalence study: plasma concentrations (LC-MS-MS) and noncompartmental PK after oral tablet
- Format: in vivo, human
- recorded-conditions: human, plasma, po, 2 mg, clonazepam 2 mg oral, plasma, 1 h, MEAN column of the sheet with 15 subject columns; read-out: Concentration, MEAN of raw data sheet
observation-type: concentration at 1 h (ng/mL)

O=C1CN=C(c2ccccc2Cl)c2cc([N+](=O)[O-])ccc2N1 = 13

----------
- assay: Clinical bioequivalence study: plasma concentrations (LC-MS-MS) and noncompartmental PK after oral tablet
- Assay type: in vivo, human
- recorded-conditions: human, plasma; Referent clinical, midazolam 15 mg tablet oral, N = 15, mean ±1 SD
observation-type: Cmax

Cc1ncc2n1-c1ccc(Cl)cc1C(c1ccccc1F)=NC2 [Midazolam, midazolam] = 101 ng/mL

----------
- assay: Clinical bioequivalence study: plasma concentrations (LC-MS-MS) and noncompartmental PK after oral tablet
- Type: in vivo, human
- recorded-conditions: human, plasma, po, 2 mg, clonazepam 2 mg oral, plasma, 48 h, mean ±1 SD N=14; read-out: Concentration, Referent
observation-type: concentration at 48 h (ng/mL)

O=C1CN=C(c2ccccc2Cl)c2cc([N+](=O)[O-])ccc2N1 = 5.04

----------
- assay: Clinical bioequivalence study: plasma concentrations (LC-MS-MS) and noncompartmental PK after oral tablet
- Type: in vivo, human
- recorded-conditions: human, plasma; Referent clinical, clonazepam 2 mg tablet oral, N = 14, mean ±1 SD
observation-type: Cmax (ng/mL)

O=C1CN=C(c2ccccc2Cl)c2cc([N+](=O)[O-])ccc2N1 = 16.2

----------
- assay: Clinical bioequivalence study: plasma concentrations (LC-MS-MS) and noncompartmental PK after oral tablet
- Format: in vivo, human
- recorded-conditions: human, plasma, po, 2 mg, clonazepam 2 mg oral, plasma, 12 h, MEAN column of the sheet with 15 subject columns; read-out: Concentration, MEAN of raw data sheet
observation-type: concentration at 12 h (ng/mL)

O=C1CN=C(c2ccccc2Cl)c2cc([N+](=O)[O-])ccc2N1 = 8.25

----------
- assay: Clinical bioequivalence study: plasma concentrations (LC-MS-MS) and noncompartmental PK after oral tablet
- Assay type: in vivo, human
- recorded-conditions: human, plasma, po, 2 mg, clonazepam 2 mg oral, plasma, 6 h, mean ±1 SD N=14; read-out: Concentration, Referent
observation-type: concentration at 6 h (ng/mL)

O=C1CN=C(c2ccccc2Cl)c2cc([N+](=O)[O-])ccc2N1 = 11.1

----------
- assay: Clinical bioequivalence study: plasma concentrations (LC-MS-MS) and noncompartmental PK after oral tablet
- Type: in vivo, human
- recorded-conditions: human, plasma, po, 2 mg, clonazepam 2 mg oral, plasma, 0 h, MEAN column of the sheet with 15 subject columns; read-out: Concentration, MEAN of raw data sheet
observation-type: concentration at 0 h (ng/mL)

O=C1CN=C(c2ccccc2Cl)c2cc([N+](=O)[O-])ccc2N1 [Clonazepam, clonazepam] = 0

----------
- assay: Clinical bioequivalence study: plasma concentrations (LC-MS-MS) and noncompartmental PK after oral tablet
- Assay type: in vivo, human
- recorded-conditions: human, plasma, po, 2 mg, clonazepam 2 mg oral, plasma, 6 h, MEAN column of the sheet with 15 subject columns; read-out: Concentration, MEAN of raw data sheet
observation-type: concentration at 6 h (ng/mL)

O=C1CN=C(c2ccccc2Cl)c2cc([N+](=O)[O-])ccc2N1 [Clonazepam, clonazepam] = 10.9

----------
- assay: Clinical bioequivalence study: plasma concentrations (LC-MS-MS) and noncompartmental PK after oral tablet
- Assay type: in vivo, human
- recorded-conditions: human, plasma, po, 15 mg, midazolam 15 mg oral, plasma, 6 h, mean (±1 SD) N=15; read-out: Concentration, Referent
observation-type: concentration at 6 h (ng/mL)

Cc1ncc2n1-c1ccc(Cl)cc1C(c1ccccc1F)=NC2 = 15.6

----------
- assay: Clinical bioequivalence study: plasma concentrations (LC-MS-MS) and noncompartmental PK after oral tablet
- Type: in vivo, human
- recorded-conditions: human, plasma, po, 15 mg, midazolam 15 mg oral, plasma, 4 h, mean (±1 SD) N=15; read-out: Concentration, Referent
observation-type: concentration at 4 h (ng/mL)

Cc1ncc2n1-c1ccc(Cl)cc1C(c1ccccc1F)=NC2 [Midazolam, midazolam] = 32.4

----------
- assay: Clinical bioequivalence study: plasma concentrations (LC-MS-MS) and noncompartmental PK after oral tablet
- Assay type: in vivo, human
- recorded-conditions: human, plasma, po, 15 mg, midazolam 15 mg oral, plasma, 8 h, mean (±1 SD) N=15; read-out: Concentration, Referent
observation-type: concentration at 8 h

Cc1ncc2n1-c1ccc(Cl)cc1C(c1ccccc1F)=NC2 [Midazolam, midazolam] = 9.33 ng/mL

----------
- assay: Clinical bioequivalence study: plasma concentrations (LC-MS-MS) and noncompartmental PK after oral tablet
- Format: in vivo, human
- recorded-conditions: human, plasma, po, 2 mg, clonazepam 2 mg oral, plasma, 4 h, MEAN column of the sheet with 15 subject columns; read-out: Concentration, MEAN of raw data sheet
observation-type: concentration at 4 h (ng/mL)

O=C1CN=C(c2ccccc2Cl)c2cc([N+](=O)[O-])ccc2N1 = 12.7

----------
- assay: Clinical bioequivalence study: plasma concentrations (LC-MS-MS) and noncompartmental PK after oral tablet
- Format: in vivo, human
- recorded-conditions: human, plasma, po, 2 mg, clonazepam 2 mg oral, plasma, 3 h, mean ±1 SD N=14; read-out: Concentration, Referent
observation-type: concentration at 3 h (ng/mL)

O=C1CN=C(c2ccccc2Cl)c2cc([N+](=O)[O-])ccc2N1 = 12.9

----------
- assay: Clinical bioequivalence study: plasma concentrations (LC-MS-MS) and noncompartmental PK after oral tablet
- Format: in vivo, human
- recorded-conditions: human, plasma, po, 2 mg, clonazepam 2 mg oral, plasma, 2 h, one value per subject (A1-A6, A8, B1-B8; B5 consumed alcohol); read-out: Concentration, individual subjects
observation-type: concentration at 2 h (ng/mL)

O=C1CN=C(c2ccccc2Cl)c2cc([N+](=O)[O-])ccc2N1 = 13.7

----------
- assay: Clinical bioequivalence study: plasma concentrations (LC-MS-MS) and noncompartmental PK after oral tablet
- Assay type: in vivo, human
- recorded-conditions: human, plasma, po, 2 mg, clonazepam 2 mg oral, plasma, 3 h, MEAN column of the sheet with 15 subject columns; read-out: Concentration, MEAN of raw data sheet
observation-type: concentration at 3 h

O=C1CN=C(c2ccccc2Cl)c2cc([N+](=O)[O-])ccc2N1 = 12.7 ng/mL

----------
- assay: Clinical bioequivalence study: plasma concentrations (LC-MS-MS) and noncompartmental PK after oral tablet
- Format: in vivo, human
- recorded-conditions: human, plasma, po, 2 mg, clonazepam 2 mg oral, plasma, 12 h, one value per subject (A1-A6, A8, B1-B8; B5 consumed alcohol); read-out: Concentration, individual subjects
observation-type: concentration at 12 h (ng/mL)

O=C1CN=C(c2ccccc2Cl)c2cc([N+](=O)[O-])ccc2N1 = 8.78
